[
  {
    "chem smiles": "CC(C)(C)c1cc(NCC(=O)N/N=C/c2ccc(OCCN3CCOCC3)c3ccccc23)n(-c2ccccc2)n1",
    "melting point (°C)": 180
  },
  {
    "chem smiles": "CC(C)(C)c1cc(NCC(=O)N/N=C/c2ccc(O)c3ccccc23)n(-c2ccccc2)n1",
    "melting point (°C)": 270
  },
  {
    "chem smiles": "CC(C)(C)c1cc(NCC(=O)N/N=C/c2cccc3ccccc23)n(-c2ccccc2)n1",
    "melting point (°C)": 140
  },
  {
    "chem smiles": "CC(C)(C)c1cc(NCC(=O)N/N=C/c2ccc(OCCN3CCOCC3)cc2)n(-c2ccccc2)n1",
    "melting point (°C)": 158
  }
]

====

Measured inhibition at 10 µM accompanies every entry in the list below.
study system: p38α MAPK (Homo sapiens)
Sequence (Q16539 whole entry): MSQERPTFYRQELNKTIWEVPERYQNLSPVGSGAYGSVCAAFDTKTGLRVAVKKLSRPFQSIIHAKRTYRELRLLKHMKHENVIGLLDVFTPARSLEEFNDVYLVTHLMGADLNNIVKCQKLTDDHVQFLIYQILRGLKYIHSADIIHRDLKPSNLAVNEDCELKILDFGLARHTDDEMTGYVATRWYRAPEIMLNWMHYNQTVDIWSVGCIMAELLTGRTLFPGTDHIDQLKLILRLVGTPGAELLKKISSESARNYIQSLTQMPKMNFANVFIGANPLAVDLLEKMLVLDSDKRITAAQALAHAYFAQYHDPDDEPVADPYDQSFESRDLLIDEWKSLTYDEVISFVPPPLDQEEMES
method description: In vitro p38α MAPK activity inhibition (nonradioactive immunosorbent assay, ref 23)
Format: biochemical
value kind: inhibition at 10 µM (%)

[
  {
    "chem smiles": "CC(C)(C)c1cc(NCC(=O)N/N=C/c2ccc(Cl)cc2)n(-c2ccccc2)n1",
    "obs value": 15.3
  },
  {
    "chem smiles": "CC(C)(C)c1cc(NCC(=O)N/N=C/c2ccccc2)n(-c2ccccc2)n1",
    "obs value": 19.5
  },
  {
    "chem smiles": "CC(C)(C)c1cc(NCC(=O)N/N=C/c2ccc(OCCN3CCOCC3)cc2)n(-c2ccccc2)n1",
    "obs value": 16.4
  },
  {
    "chem smiles": "CC(C)(C)c1cc(NCC(=O)N/N=C/c2cccc3ccccc23)n(-c2ccccc2)n1",
    "obs value": 19.7
  },
  {
    "chem smiles": "CC(C)(C)c1cc(NCC(=O)N/N=C/c2ccc(OCCN3CCOCC3)c3ccccc23)n(-c2ccccc2)n1",
    "obs value": -5.35
  }
]

meta.source: paper PMC3466213
